target: T1, human Claudin18.2 (human, UniProt P56856-2 1-261); assay: flow cytometry on Ba/F3-Claudin18.2 cells, chimeric antibody
T1 construct: whole, on cells; Four-transmembrane protein, always presented on cells (transfected lines or NUGC-4 with endogenous expression); also called CLDN18.2
Listing of recorded Max MFI by entry.
The figure you give is taken to be in MFI; do not add the unit.

**Q:** Given chimeric antibody 19H11.6-hz00 (antibody, human IgG1, kappa, V domains shown, Mouse variable regions on human IgG1 / kappa constant regions; expressed in Expi293F) VH: EVMLVESGGGLVKPGGSLKLSCAASGFSFSNSAMSWVRQTPEKRLEGVATISSGDSFTYYPDTVKGRFTISRDNAKNSLYLQMSRLRSEDTAVYYCARQGYGNALDYWGQGTSVTVSS VL: DIVMTQSPSSLTVTAGEKVTMTCKSSQSLLNSGNQKNYLTWYQQKPGQPPKLLIYWSSTRESGVPDRFTGSGSGTDFTLTISSVQAEDLAVYYCQNDYYYPLTFGAGTKLELKR , state its recorded Max MFI.
**A:** 1.3e+07

Now, please, on to the next binder.
**Q:** # input binder: chimeric antibody 16A9.11-hz00 (antibody, human IgG1, kappa, V domains shown, Mouse variable regions on human IgG1 / kappa constant regions; expressed in Expi293F) VH: EVMLVESGGGLVKPGGSLKLSCAASGFSFSNSAMSWVRQTPEKRLEGVATISSGDSYTYYPDSVKGRFTISRDTAKNSLYLQMSSLRSEDTAVYYCTRQGYGNAMDYWGQGTSVTVSS VL: DIVMTQSPSSLTVTAGEKVTMSCKSSQSLLNSGNQKNYLTWYQQKPGQPPKLLIYWSSTRESGVPDRFTGSGSGTDFTLTISSVQAEDLAVYYCQNDYYYPLTFGAGTKLELKR ; wanted: its Max MFI
**A:** 1.24e+07
